# System: FMOC06 (patient-derived mucinous ovarian cancer cells)
# protocol_summary: drug sensitivity score (DSS3, normalised partial AUC of % inhibition dose-response) (DSS (score)); higher = more sensitive (stronger inhibition of viability); extreme values may be limits of the assay
# test_context: 72 h; library: FO5A; assay format: 2D, 384-well, CellTiter-Glo
Here, each record is paired with measured drug sensitivity score data.
Number, no unit, nothing else.

{"columns": ["compound", "observed_value"],
 "data": [
  ["CN(C)CCOc1ccc(/C(=C(/CCCl)c2ccccc2)c2ccccc2)cc1 [Toremifene]", 7.4],
  ["C[C@H]1CNCCCN1S(=O)(=O)c1cccc2cncc(F)c12 [Ripasudil]", 0],
  ["CCCN(CCC)C(=O)C1=Cc2ccc(-c3ccc(C(=O)N4CCCC4)cc3)cc2N=C(N)C1 [Motolimod]", 0.3],
  ["OC[C@H]1O[C@@H](n2cnc3c2N=CNC[C@H]3O)C[C@@H]1O [Pentostatin]", 0],
  ["O=C(Nc1cc(Oc2cc(F)c(NC(=O)C3(C(=O)Nc4ccc(F)cc4)CC3)cc2F)ccn1)C1CC1 [Altiratinib]", 6.9],
  ["CO[C@H]1C[C@@H]2CC[C@@H](C)[C@@](O)(O2)C(=O)C(=O)N2CCCC[C@H]2C(=O)O[C@H]([C@H](C)C[C@@H]2CC[C@@H](OCCO)[C@H](OC)C2)CC(=O)[C@H](C)/C=C(\\C)[C@@H](O)[C@@H](OC)C(=O)[C@H](C)C[C@H](C)/C=C/C=C/C=C/1C [Everolimus]", 5.8],
  ["O=C(Nc1c[nH]nc1-c1nc2ccc(CN3CCOCC3)cc2[nH]1)NC1CC1 [AT9283]", 2.8],
  ["COc1cc2c(Oc3ccc(NC(=O)C4(C(=O)Nc5ccc(F)cc5)CC4)cc3F)ccnc2cc1OCCCN1CCOCC1 [Foretinib]", 3.1],
  ["CC/C(=C(\\c1ccc(O)cc1)c1ccc(OCCN(C)C)cc1)c1ccccc1 [4-hydroxytamoxifen]", 7.3],
  ["Cc1cc(C(C)Nc2ccccc2)c2nc(N3CCOCC3)cc(=O)n2c1 (centres undefined) [TGX-221]", 1.1]
]}

Q. If you can, please state the reported drug sensitivity score value of NC1(c2ccc(-c3nc4ccn5c(=O)[nH]nc5c4cc3-c3ccccc3)cc2)CCC1 [MK-2206] .
A. 4.8

Q. # drug sensitivity score lookup, item CN1CCN(C(=O)c2ccc3cc(CCNc4ncnc5ccc(C#N)cc45)ccc3c2)CC1 [Senexin B]
A. 1
